- Tested on: Plasmodium berghei
- assayProcedure: Screen against P. berghei liver stage (PbLuc), transformed with Luciferase, at 10uM
- Assay type: functional, HepG2
- reportedConditions: tested at 10 uM
Out of some 69,000 compounds screened, about 8,600 (12%) showed an effect of 50% or more. This is one part of a sample in which strong results are shown more often than they occur.
propertyName: INHIBITION (%)
Your answer should be a plain number; it is taken to be in %.

Cc1nc(C)n(C2CCCN(C(=O)c3ccc4nccn4c3)C2)n1 (stereo not given) ... 20.8
Cc1cc(CN2C[C@@H]3CN(C(=O)c4ccco4)CCO[C@@H]3C2)no1 ... 12
CCC(=O)N1CCC2(CC1)c1nc[nH]c1CCN2S(C)(=O)=O ... 1.81
Cn1cc(CN2CCOC(c3nccnc3-c3cccc(F)c3)C2)cn1 (stereo not given) ... 23
CCN(CC)C(CNC(=O)c1ccnc(N(C)C)c1)c1ccsc1 (stereo not given) ... 13.3

Please turn your attention to the following entry.
Prompt: // returns reported INHIBITION for input Cc1cc(CN2C[C@@H]3CN(C(=O)c4cccn4C)CCO[C@@H]3C2)no1
Completion: 89.3

----------
- System: Plasmodium berghei
- assayProcedure: Screen against P. berghei liver stage (PbLuc), transformed with Luciferase, at 10uM
- Format: functional, HepG2
- reportedConditions: tested at 10 uM
Hit rate of the full screen: of about 69,000 compounds, about 8,600 (12%) showed an effect of 50% or more. The entries come from a sample that favours strong results as a whole.
Listing: INHIBITION of selected molecules
Your answer should be a plain number; it is taken to be in %.

// below: answered molecules
COc1ccc2c(c1)C(C(=O)N(C)CCc1scnc1C)CC(=O)N2 (centres undefined) ... 44.3
CCOC(=O)N1CCN(c2nc(CCN)nc3sc(C)c(C)c23)CC1 ... 90.7
COc1ccc2c(c1)C(C(=O)N(C)CCCc1cnn(C)c1)CC(=O)N2 (centres undefined) ... 55.4

Prompt: // returns reported INHIBITION for input COc1ccc2c(c1)CC(C(=O)N(C)CCCc1cnn(C)c1)CO2 (centres undefined)
Completion: -1.91

Prompt: Now this one: O=c1[nH]c(NCCO)nc2c1C1(CCCCC1)Cc1ccccc1-2
Completion: 66.5

Prompt: Now this one: CC(c1ccco1)N(C(=O)Cn1nc2n(c1=O)CCCCC2)C1CC1 (centres undefined)
Completion: 5.94

Prompt: Now this one: COCC(=O)N1CCN(C(C)c2ncc(-c3ccccc3)o2)CC1 (centres undefined)
Completion: 40.2

Prompt: Now this one: OCCCNc1nc(O)c2c(n1)-c1ccccc1CC21CCCCC1
Completion: 77.2

Prompt: Now this one: Cc1ccc(C2CSCCN2C(=O)c2cnsn2)o1 (centres undefined)
Completion: 8.46

----------
- Test system: Plasmodium berghei
- assayProcedure: Screen against P. berghei liver stage (PbLuc), transformed with Luciferase, at 10uM
- Format: functional, HepG2
- reportedConditions: tested at 10 uM
The campaign covered roughly 69,000 compounds. About 8,600 (12%) showed an effect of 50% or more. The full list was thinned out, with strong results kept by preference.
propertyName: INHIBITION (%)
Your answer should be a plain number; it is taken to be in %.

// below: answered molecules
Cn1cc(CN2CCC[C@]3(C[C@@H](Oc4ncccc4F)CO3)C2)cn1 ... 35.5
CC(C)c1nn(C)c(Cl)c1CNCc1ccc2c(c1)OCO2 ... 27.8
Cc1cc(-c2cnc(NCc3ccc4c(c3)OCO4)nc2C(C)C)on1 ... 90.5
Cc1ccc(-n2nc(C)cc2N)nn1 ... -24.2
O=C(NC1CC1)c1cc(NC(=O)N2CCSCC2)ccc1Cl ... 57.6
Cc1nnc(SC2CCc3ccccc3NC2=O)n1C (centres undefined) ... 38.1
O=C(Nc1ccc(CCN2CCSCC2)cc1)NC1CC1 ... 1.79
Cn1c(=O)oc2ccc(NC(=O)N3CCOCC3)cc21 ... 53.9
Cc1cccc(CN2CCc3ncnc(N4CCN(C)CC4)c3CC2)n1 ... -110
CN(C)c1ccc(CCCNC(=O)NCC(O)c2cccs2)cc1 (centres undefined) ... 60.4

Prompt: Observed INHIBITION on Plasmodium berghei for O=C(NC1CC1)c1cc(NC(=O)N2CCCC(O)C2)ccc1Cl (centres undefined) , please.
Completion: 28.5

Prompt: Now this one: CC(C)(C)c1oc(C(N)=O)cc1CN1CCCCC1CN1CCOCC1 (centres undefined)
Completion: 48.5

Prompt: Now this one: CC1CN(C(=O)Nc2ccc(Cl)c(C(=O)NC3CC3)c2)CC(C)(C)O1 (centres undefined)
Completion: 31.9

Prompt: Now this one: CCn1c(CC2CCN(S(=O)(=O)c3cccs3)CC2)nn(C)c1=O
Completion: 41.5

Prompt: Now this one: COc1ccc(N2CCN(C(=O)COc3nccc(C)n3)CC2)cc1
Completion: 36.8

Prompt: Now this one: CC(C)c1nc(CN(C)C(=O)[C@H](N)Cc2ccc(Cl)cc2)cs1
Completion: 17.2

Prompt: Now this one: CN(C)S(=O)(=O)c1ccc(CN2CCCC2c2cccs2)o1 (centres undefined)
Completion: 22.3

Prompt: Now this one: Cc1nccn1-c1cc(CNC(=O)NCC2CCCO2)ccn1 (centres undefined)
Completion: -2.33

Prompt: Now this one: COc1cccc(OCCc2nnc(NC(C)=O)s2)c1
Completion: -8.9

----------
- System: Plasmodium berghei
- assayProcedure: Screen against P. berghei liver stage (PbLuc), transformed with Luciferase, at 10uM
- Format: functional, HepG2
- reportedConditions: tested at 10 uM
The campaign covered roughly 69,000 compounds. About 8,600 (12%) showed an effect of 50% or more. The sample holds strong results, similar compounds and a random draw of the others, so the mix is not that of the screen.
propertyName: INHIBITION (%)
Your answer should be a plain number; it is taken to be in %.

// below: answered compounds
COCc1cc(CNC(=O)c2cc(NC(C)=O)ccc2Cl)n[nH]1 ... 40.6
CCSc1ccc(C(=O)N2CC[C@](C)(O)[C@H](C)C2)s1 ... -5.12

Prompt: // returns reported INHIBITION for input CC(=O)N1CCC1c1cc(NC2CCOCC2)nc(C)n1 (stereo not drawn)
Completion: 11.65

Prompt: Now this one: c1cnc(NC[C@@H]2CCC[C@@H]3CN(Cc4cc[nH]n4)C[C@@H]32)nc1
Completion: 1.81

Prompt: Now this one: CC1(c2ccc(Br)cc2)CC(=O)N(CCC#N)C1=O (stereo not drawn)
Completion: -12.2

Prompt: Now this one: COc1cccc(-c2n[nH]cc2-c2nc(CN3CCCC3)no2)c1
Completion: 34

----------
Listing: INHIBITION of selected compounds
- Test system: Plasmodium berghei
- assayProcedure: Screen against P. berghei liver stage (PbLuc), transformed with Luciferase, at 10uM
- Type: functional, HepG2
- reportedConditions: tested at 10 uM
About 8,600 (12%) of roughly 69,000 compounds showed an effect of 50% or more. This excerpt belongs to a sample that is enriched for strong results.
Your answer should be a plain number; it is taken to be in %.

// below: answered compounds
COc1cccc(CCC2CCCN(C(=O)c3ccccn3)C2)c1 (stereo not drawn) ... 43.7
CC(C)c1cc(N2CCC(NS(C)(=O)=O)CC2)n2nccc2n1 ... 61.2
CSc1nnc(C2CCN(C(=O)N3CCCC3)CC2)n1C ... 16.185
CC(=O)N1CCCC(c2nccnc2-c2ccc(CO)cc2)C1 (stereo not drawn) ... 20.2
O=C(CCc1cccnc1)N1CCC(c2cnccn2)CC1 ... 15.9

Prompt: // returns reported INHIBITION for input Clc1cc(CN2CCCC2Cn2cncn2)c2ncccc2c1 (stereo not drawn)
Completion: 22.9

Prompt: Now this one: Cc1cc(C(=O)N2CCCC3(COCCN(c4ncccn4)C3)C2)[nH]n1 (stereo not drawn)
Completion: 33.4

Prompt: Now this one: O=C1CC2(CCN(CC3CC3)C2)CN1c1cccc(F)c1 (stereo not drawn)
Completion: -6.02

Prompt: Now this one: COc1cccc(CCC2CCCN(C(=O)c3cnccn3)C2)c1 (stereo not drawn)
Completion: 81.1

Prompt: Now this one: CSc1nnc(CC2CCN(C(=O)COc3cccnc3)CC2)n1C
Completion: 73

Prompt: Now this one: Clc1snnc1CN1CCCC(Cn2cncn2)C1 (stereo not drawn)
Completion: 62.1

Prompt: Now this one: CC(C)n1c(=O)[nH]c2cn(-c3ccc(F)cc3)c(=O)n21
Completion: 3.16

Prompt: Now this one: CC(C)CS(=O)(=O)N1CCC2(CN(c3cccc(F)c3)C(=O)CN2C)C1 (stereo not drawn)
Completion: 55.5

Prompt: Now this one: Clc1ccc(CN2CCCC(Cn3cncn3)C2)c2ncccc12 (stereo not drawn)
Completion: 35.1
